Tested on: pylorous ligated rats
assay.remarks: Antisecretory activity in the pylorous ligated rat model
Type: in vivo, male Sprague-Dawley rats
experimental.context: Rattus norvegicus, 4 h; oral dose 100 mg/kg; read-out: Percent inhibition of acidity
Structures can show the parent of a compound that is named as a salt.
Record Y whenever inhibition in vivo at 100 mg/kg is at 60% or higher; record N when lower.

Study these solved cases before continuing.
>  <molecule>
CC(C)c1cc(O)c(C2=CCN(C)CC2)c(O)c1.Cl [Example VI, hydrochloride]

>  <system.tested>
pylorous ligated rats

>  <class>
Y

$$$$
>  <molecule>
CCCCCC(C)C(C)c1cc(O)c(C2=CCN(Cc3ccccc3)CC2)c(O)c1.Cl (stereo not drawn) [Example XIV, hydrochloride]

>  <system.tested>
pylorous ligated rats

>  <class>
N

$$$$

Reported inhibition in vivo at 100 mg/kg at or above 60%? CCCCCC(C)C(C)c1cc(O)c(C2=CCN(C)CC2)c(O)c1 (stereo not drawn) [Example X] Y

Decide: is the reported value of inhibition in vivo at 100 mg/kg for CCCCCC(C)C(C)c1cc(O)c(C2=CCNCC2)c(O)c1 (stereo not drawn) [Example XV, hydrochloride] equal to or greater than 60%? N

Does the molecule CCCCCC(C)C(C)c1cc(O)c(C2=CCN(CCc3ccccc3)CC2)c(O)c1 (stereo not drawn) [Example XX, hydrochloride] have recorded inhibition in vivo at 100 mg/kg that is 60% or more? N

Assess whether reported inhibition in vivo at 100 mg/kg for CCCCCc1cc(O)c(C2CCN(CCc3ccccc3)CC2)c(O)c1 [Example XXI, hydrochloride] sits at 60% or higher. N
